Origin of values: PubChem BioAssay AID504834

assay: Primary qHTS for delayed death inhibitors of the malarial parasite plastid, 96 hour incubation; settings: P. falciparum luciferase reporter growth; series mostly up to 28.7 µM
Hit rate of the full screen: of about 320,000 compounds, about 22,000 (6.9%) were called active. Not shown: some 27% with an inconclusive outcome. Calls follow the shape of the dose curve; as a rule, active = well fitted inhibition curve with a large enough effect; inconclusive = small, poorly fitted or top-dose-only effect, or another doubt; inactive = no such curve, though single readings can be large or run the other way. For the sample, actives were picked, then their nearest neighbours and some compounds at random.
Please state which outcome applies, choosing from True for active, False for inactive

GET /call?item= O=c1c2cc([N+](=O)[O-])ccc2nc2n1CCC2 returns the recorded outcome of this test.
False

GET /call?item= COc1ccc(C(=O)N2CCN(c3ncccn3)CC2)cc1S(=O)(=O)N1CCOCC1 returns the recorded outcome of this test.
False

GET /call?item= CN(CC(=O)O)S(=O)(=O)c1ccc2oc3ccccc3c2c1 returns the recorded outcome of this test.
False

GET /call?item= Cn1c(-c2sccc2OCc2cccc(C(F)(F)F)c2)n[nH]c1=S returns the recorded outcome of this test.
True

GET /call?item= C=CCNc1ncnc2ccc(Br)cc12 returns the recorded outcome of this test.
False

GET /call?item= O=C(NCC(c1ccco1)N1CCc2ccccc2C1)c1ccccc1Cl (stereo unspecified) returns the recorded outcome of this test.
False

GET /call?item= COc1ccc(C(=O)NC(=S)NC2CCCCC2)cc1 returns the recorded outcome of this test.
False

GET /call?item= CC1(C)CC2CC(C)(CN2c2ncnc3ccc(Br)cc23)C1 (stereo unspecified) returns the recorded outcome of this test.
True

***
GET /call?item= CN(C)Cc1c(C(=O)N/N=C/c2ccccc2OCc2ccc(F)cc2)nnn1-c1nonc1N returns the recorded outcome of this test.
False

GET /call?item= COc1ccc(Nc2ncnc3ccc(Br)cc23)c(OC)c1 returns the recorded outcome of this test.
False

GET /call?item= CCc1nn(CCCC(=O)Nc2ccc(C)c(C)c2)c(=O)c2cc3occc3n12 returns the recorded outcome of this test.
False

* * *

assay: Primary qHTS for delayed death inhibitors of the malarial parasite plastid, 96 hour incubation; conditions: P. falciparum luciferase reporter growth; series mostly up to 28.7 µM
The campaign covered roughly 320,000 compounds. About 22,000 (6.9%) were called active. Inconclusive results (about 27%) are left out. The call rests on the fitted dose curve; in most records, active means well fitted inhibition curve with a large enough effect; inconclusive means small, poorly fitted or top-dose-only effect, or another doubt; inactive means no such curve, though single readings can be large or run the other way. Shown is part of a subset that was picked to be rich in actives.
Please state which outcome applies, choosing from active, inactive

GET /call?item= CC(C)c1ccc2c(c1)c(SC(C)(C)C)c(CC(C)(C)C(=O)O)n2Cc1ccc(Cl)cc1 returns the recorded outcome of this test.
active

GET /call?item= Cc1cccc(-c2noc(CCC(=O)NC3CCCC3)n2)c1 returns the recorded outcome of this test.
inactive

GET /call?item= COc1cc(C(=O)OCC(=O)NC(C)CCc2ccccc2)cc(OC)c1OC (stereo unspecified) returns the recorded outcome of this test.
inactive

GET /call?item= O=C(O)c1ccc(Cn2c(=S)[nH]c3cc(Cl)ccc3c2=O)cc1 returns the recorded outcome of this test.
inactive

GET /call?item= COc1ccc(C[C@H](C(=O)O)N2C(=O)c3ccc(C(=O)O)cc3C2=O)cc1 returns the recorded outcome of this test.
inactive

***
GET /call?item= Nc1nonc1-n1nnc(C(=O)N/N=C\c2ccncc2)c1CN1CCCCC1 returns the recorded outcome of this test.
inactive

GET /call?item= FC(F)(F)C1CCCN(c2nsc3ccccc23)C1 (stereo unspecified) returns the recorded outcome of this test.
inactive

GET /call?item= CC(Cc1cccs1)NC(=O)c1cccc(Cl)c1 (stereo unspecified) returns the recorded outcome of this test.
inactive

GET /call?item= CC(=O)c1c(C)[nH]c(C(=O)N2CCN(S(=O)(=O)c3ccc(F)c(F)c3)CC2)c1C returns the recorded outcome of this test.
inactive

GET /call?item= CC(Cc1cccs1)N(Cc1ccc(Cl)cc1)C(=O)c1ccncc1 (stereo unspecified) returns the recorded outcome of this test.
active

GET /call?item= CC(Cc1cccs1)NCc1ccc(Cl)cc1 (stereo unspecified) returns the recorded outcome of this test.
inactive
